molecular target: VEGF-A165 (human, UniProt P15692-4 27-191); experiment: MST; TBSET: 10 mM Tris, 100 mM NaCl, 50 mM KCl, 0.05 mM EDTA, 0.05% Tween 20, pH 7; MST with 25 nM aptamer, 20 min at 20 C, read at room temperature; microarray in TBSETB (TBSET + 1% BSA), 1 h for the co-incubation; settings: protein: recombinant; chain copies: 2; label: 3' Cy5
Sequence (P15692 other isoform, or with tags, fused parts or gaps): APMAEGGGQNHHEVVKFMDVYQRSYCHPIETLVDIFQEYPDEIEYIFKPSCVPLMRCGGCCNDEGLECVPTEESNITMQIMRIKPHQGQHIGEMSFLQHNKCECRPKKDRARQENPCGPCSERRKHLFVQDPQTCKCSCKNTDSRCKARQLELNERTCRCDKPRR

binder	result units	Kd
ATACCAGTCTATTCAATTGGGCCCGTCCGTATGGTGGGTGTGCTGGCCAG (ssDNA) [Del5-1-Cy5]	nM	47

Provenance of the data: paper PMC6955894
